- tested-target: T1, HLA-DR15 (HLA-DRB1*15:01) (human)
- T1 construct: mature; purified from homozygous EBV-transformed lymphoblastoid cells with antibody L243
- test-details: competition ELISA vs biotin-A3 152-166
No end group written: not given here.
Measured relative affinity accompanies every entry in the list below.
parameter: relative affinity

INSERT INTO results (binder, parameter, value_reported) VALUES
  ('ETMYMTVSIIDRFMQ-NH2 [CCNB1 221-235]', 'relative affinity', 0.3),
  ('LQLVGVTAMFIASKY-NH2 [CCNB1 244-258]', 'relative affinity', 1),
  ('PTLQHYLSYTEESLL-NH2 [CCNB1 363-377]', 'relative affinity', 1),
  ('SQIAAGAFCLALKIL-NH2 [CCNB1 342-356]', 'relative affinity', 21),
  ('KKMLQLVGVTAMFIA-NH2 [CCNB1 241-255]', 'relative affinity', 1),
  ('QHYLSYTEESLLPVM-NH2 [CCNB1 366-380]', 'relative affinity', 47);
